Molecular target: Acetylcholinesterase (Homo sapiens)
Sequence (P22303 whole entry): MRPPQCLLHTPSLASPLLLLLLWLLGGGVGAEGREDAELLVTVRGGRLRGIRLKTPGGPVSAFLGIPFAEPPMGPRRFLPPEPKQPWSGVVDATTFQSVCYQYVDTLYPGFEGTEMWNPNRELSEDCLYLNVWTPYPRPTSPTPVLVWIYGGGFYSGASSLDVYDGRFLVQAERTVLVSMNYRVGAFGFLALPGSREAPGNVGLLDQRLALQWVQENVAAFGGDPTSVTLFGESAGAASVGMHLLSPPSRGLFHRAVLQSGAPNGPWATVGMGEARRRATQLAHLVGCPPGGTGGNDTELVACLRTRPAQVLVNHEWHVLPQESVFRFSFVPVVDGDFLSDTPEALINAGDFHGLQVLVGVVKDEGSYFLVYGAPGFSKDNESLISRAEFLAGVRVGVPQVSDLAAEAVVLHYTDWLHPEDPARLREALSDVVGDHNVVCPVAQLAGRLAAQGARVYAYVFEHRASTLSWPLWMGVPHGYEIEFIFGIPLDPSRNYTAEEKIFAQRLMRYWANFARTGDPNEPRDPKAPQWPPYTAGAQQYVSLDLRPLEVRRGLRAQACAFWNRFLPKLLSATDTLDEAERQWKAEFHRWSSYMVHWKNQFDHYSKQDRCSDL
measured_attribute: pIC50
Answers are plain numbers, as −log10 of the molar value.

Requested read-out: pIC50. Entry: `O=c1c2nc(-c3ccc(C(F)(F)F)cc3)sc2nc2n1CCCC2`
5.78
